Overview of reported fractional viability across a group of compounds:
# System: TYKNU
# assayInfo: fractional viability relative to vehicle; higher = less growth inhibition
# assayContext: 10uM; 72 h; genotype: OPA1 knockout (sgOPA1 #2)
Structures can show the parent of a compound that is named as a salt. In all, about 2,000 compounds were measured (“fractional viability relative to vehicle”: median about 0.92, lowest 2% from about 0.11 on). Many of the other results were omitted from the sample, so the lowest values are more common in it than they were.
quantityMeasured: fractional viability

>>> endpointresult("C=CC(=O)Nc1cccc(Nc2nc(Nc3ccc(N4CCN(C(C)=O)CC4)cc3OC)ncc2C(F)(F)F)c1")
0.431
>>> endpointresult("O=C(O)CSc1cc(NS(=O)(=O)c2ccc(Br)cc2)c2ccccc2c1O")
0.365
>>> endpointresult("CNC(=O)c1ccccc1Nc1nc(Nc2ccc(N3CCOCC3)cc2OC)ncc1Cl")
0.532
>>> endpointresult("CS(=O)(=O)c1ccc(-c2nnc(/C=C/c3nnc(-c4ccc(C#N)cc4)o3)n2-c2ccccc2Cl)nc1")
1.03
>>> endpointresult("O=C1C(=O)N(Cc2ccc(Cl)c(Cl)c2)c2ccccc21")
0.287
>>> endpointresult("CCCCC(C=O)NC(=O)C(CC(C)C)NC(=O)C(CC(C)C)NC(C)=O (stereo not drawn)")
0.939
>>> endpointresult("c1nc2c(NC3CCCCC3)nc(Nc3ccc(N4CCOCC4)cc3)nc2[nH]1")
0.342
>>> endpointresult("Cc1cc(Nc2ncc(Cl)c(Nc3ccccc3S(=O)(=O)C(C)C)n2)c(OC(C)C)cc1C1CCNCC1")
0.0286
>>> endpointresult("CC(C)C[C@H](NP(=O)(O)O[C@@H]1O[C@@H](C)[C@H](O)[C@@H](O)[C@H]1O)C(=O)N[C@@H](Cc1c[nH]c2ccccc12)C(=O)O [Phosphoramidon Disodium Salt]")
0.879
>>> endpointresult("COc1cc(/C=C/C(=O)N2CCC=CC2=O)cc(OC)c1OC")
0.085
>>> endpointresult("CCN(CC)CCCC(C)Nc1nc(C)cc(Nc2ccc3nc(C)cc(N)c3c2)n1 (stereo not drawn)")
0.898
>>> endpointresult("Clc1cccc(CN=C2Nc3ccccc3NC23CCNCC3)c1")
0.729
>>> endpointresult("CN1CCC(Nc2nc(Nc3ccc(Oc4ccccc4)cc3)c3c(=O)[nH]cc(Br)c3n2)CC1")
0.0528
>>> endpointresult("C=CC(=O)Nc1cc(Nc2nccc(-c3cn(C)c4ccccc34)n2)c(OC)cc1N(C)CCN(C)C")
0.0725
>>> endpointresult("[I-].[K+] [Potassium Iodide]")
0.971
>>> endpointresult("COc1cc(N2CCC(N)CC2)ccc1Nc1ncc(Cl)c(-c2c[nH]c3ccccc23)n1")
0.177
>>> endpointresult("O=C(COc1ccc(Cl)cc1)NC1CCC(NC(=O)COc2ccc(Cl)cc2)CC1 (stereo not drawn) [ISRIB (trans-isomer)]")
0.976
>>> endpointresult("COc1cc(/C=C/C(=O)N2CCN(CC(=O)N3CCCC3)CC2)cc(OC)c1OC [Cinepazide maleate]")
0.991
>>> endpointresult("C=CC(=O)Nc1cc(Nc2nccc(-c3c[nH]c4ccccc34)n2)c(OC)cc1N(C)CCN(C)C")
0.0815
>>> endpointresult("CN(CC(=O)N(Cc1ccc(C2CCCCC2)cc1)c1ccc(C(=O)O)cc1)S(=O)(=O)c1c(F)c(F)c(F)c(F)c1F")
0.0586
>>> endpointresult("CCCCN1CCCC[C@H]1C(=O)Nc1c(C)cccc1C [Levobupivacaine HCl]")
0.949
>>> endpointresult("Cn1cc(-c2cnn3c(N)c(Br)c([C@@H]4CCCNC4)nc23)cn1")
0.814
>>> endpointresult("C=CCNC1=C2C[C@@H](C)C[C@H](OC)[C@H](O)[C@@H](C)/C=C(\\C)[C@H](OC(N)=O)[C@@H](OC)/C=C\\C=C(/C)C(=O)NC(=CC1=O)C2=O")
0.468
>>> endpointresult("COc1ccc(/C=C\\c2cc(OC)c(OC)c(OC)c2)cc1O")
0.292
>>> endpointresult("N#C/C(=C1/SC[C@@H](c2ccc(Cl)cc2Cl)S1)n1ccnc1")
0.818
>>> endpointresult("CN[C@@H](C)C(=O)N[C@H](C(=O)N1CCC[C@H]1c1nc(C(=O)c2ccc(F)cc2)cs1)C1CCCCC1")
0.643
>>> endpointresult("CNc1cccc(CCOc2ccc3c(c2)CN(CC(F)(F)F)C(=O)[C@H](CC(=O)O)C3)n1")
0.671
>>> endpointresult("COc1ccc(C[C@H](NC(=O)[C@H](C)NC(=O)CN2CCOCC2)C(=O)N[C@@H](Cc2ccccc2)C(=O)[C@@]2(C)CO2)cc1")
0.144
>>> endpointresult("Cc1cc([N+](=O)[O-])ccc1NS(=O)(=O)c1cc(Cl)ccc1Cl")
0.476
>>> endpointresult("C=CC(=O)Nc1cccc(C)c1Nc1ncc2cc(-c3c(Cl)c(OC)cc(OC)c3Cl)ccc2n1")
0.37
>>> endpointresult("CC(C)C[C@H](NC(=O)[C@H](CCc1ccccc1)NC(=O)CN1CCOCC1)C(=O)N[C@@H](Cc1ccccc1)C(=O)N[C@@H](CC(C)C)C(=O)[C@@]1(C)CO1")
0.146
>>> endpointresult("CN1CCN(Cc2ccc(Nc3ncc(Cl)c(Nc4ccccc4S(=O)(=O)N(C)C)n3)cc2)CC1")
0.421
>>> endpointresult("N#Cc1c(NC(=O)c2cccc3ccccc23)sc2c1CCCC2")
0.386

* * *

Overview of reported fractional viability across a group of compounds:
# System: TYKNU
# assayInfo: fractional viability relative to vehicle; higher = less growth inhibition
# assayContext: 10uM; 72 h; genotype: OPA1 knockout (sgOPA1 #2)
Over roughly 2,000 compounds, “fractional viability relative to vehicle” has its median near 0.92; the lowest 2% begin near 0.11. Shown is part of a subset that was picked to be rich in the lowest values.
quantityMeasured: fractional viability

>>> endpointresult("CCN1CCN(Cc2ccc(Nc3ncc(F)c(-c4cc(F)c5nc(C)n(C(C)C)c5c4)n3)nc2)CC1")
0.0904
>>> endpointresult("Cc1cc(C)nc(SCC(=O)Nc2ncc(Cc3cccc4ccccc34)s2)n1")
0.931
>>> endpointresult("O=C(c1cncc(Br)c1)N1CCC(N2CCCC2)CC1")
0.838
>>> endpointresult("C=C1/C(=C\\C=C2/CCC[C@]3(C)[C@@H]([C@H](C)CCCC(C)(C)O)CC[C@@H]23)C[C@@H](O)C[C@@H]1O [Calcitriol]")
0.937
>>> endpointresult("CCN1CCN(Cc2ccc(C(=O)Nc3ccc(C)c(Oc4ccc5c(c4)CC(=O)N5)c3)cc2C(F)(F)F)CC1")
0.462
>>> endpointresult("Cc1ccc(C(=O)Nc2ccc(CN3CCN(C)CC3)c(C(F)(F)F)c2)cc1C#Cc1cnc2cccnn12")
0.106
>>> endpointresult("O=C(c1ccc(C(=O)N2CCC(N3CCCC3)CC2)c(Nc2ccccc2)c1)N1CCC(N2CCCC2)CC1")
0.857
>>> endpointresult("O=C1NC(=O)/C(=C/c2ccc(-c3ccc(F)cc3O)o2)S1")
0.742
>>> endpointresult("Cc1ccc(C(=O)Nc2ccc(CN3CCN(C)CC3)c(C(F)(F)F)c2)cc1C#Cc1cnc2[nH]ncc2c1")
0.115

* * *

# System: TYKNU
# assayInfo: fractional viability relative to vehicle; higher = less growth inhibition
# assayContext: 10uM; 72 h; genotype: OPA1 knockout (sgOPA1 #2)
In all, about 2,000 compounds were measured (“fractional viability relative to vehicle”: median about 0.92, lowest 2% from about 0.11 on). The full list was thinned out, with the lowest values kept by preference.
Field: label. Allowed values: 1.0 (fractional viability < 0.8) or 0.0 (fractional viability >= 0.8).

>>> category("CC(=O)Nc1ccc(C(=O)Nc2ccccc2N)cc1")
1.0
>>> category("O=C(O)C(Cc1c[nH]c2ccccc12)N1C(=O)c2ccccc2C1=O (centres undefined)")
1.0
>>> category("NC(=O)c1ccc(N(C(N)=O)c2c(F)cccc2F)nc1-c1ccc(F)cc1F")
0.0
>>> category("Oc1ccc(-c2nc(-c3ccc(F)cc3)c(-c3ccncc3)[nH]2)cc1")
0.0
>>> category("OCCn1cc(-c2ccc3c(c2)CC/C3=N\\O)c(-c2ccncc2)n1")
0.0
>>> category("NC(CO)(CO)CO")
0.0
>>> category("Cc1cc(Nc2ccc(NC(=O)c3ccc(Nc4ccnc5ccccc45)cc3)cc2)nc(N)n1")
1.0
>>> category("CC[C@@H]([C@H](C)O)n1ncn(-c2ccc(N3CCN(c4ccc(OC[C@@H]5CO[C@@](Cn6cncn6)(c6ccc(F)cc6F)C5)cc4)CC3)cc2)c1=O")
0.0
>>> category("CN(C)CCOc1ccc(-c2nc(-c3ccncc3)c(-c3ccc4c(c3)CC/C4=N\\O)[nH]2)cc1")
1.0

* * *

# Tested on: TYKNU
# assayInfo: fractional viability relative to vehicle; TYKNU is a high-grade serous ovarian cancer line; higher = less growth inhibition
# assayContext: 10uM; 72 h; genotype: OPA1 knockout (sgOPA1 #2)
Structures can show the parent of a compound that is named as a salt. The full ranking holds about 2,000 compounds; the median of “fractional viability relative to vehicle” is about 0.92, and the lowest 2% start at about 0.11. This is one part of a sample in which the lowest values are shown more often than they occur.
quantityMeasured: fractional viability

>>> endpointresult("COc1cc(OC)c(C(=O)CCCN2CCCC2)c(OC)c1 [Buflomedil HCl]")
0.685
>>> endpointresult("COc1cc2ncnc(Nc3ccc(O)c(Br)c3)c2cc1OC")
1.19
>>> endpointresult("C=CC(=O)N1C/C(=C\\c2ccc([N+](=O)[O-])cc2)C(=O)/C(=C/c2ccc([N+](=O)[O-])cc2)C1")
0.111
>>> endpointresult("Cn1ncnc1[C@H]1c2n[nH]c(=O)c3cc(F)cc(c23)N[C@@H]1c1ccc(F)cc1")
0.986
>>> endpointresult("NC(=O)c1noc([C@H](CCCC2CCCCC2)CC(=O)NO)n1")
0.853
>>> endpointresult("c1ccc(Cn2c(-c3ccc(OC[C@H](C4CCNCC4)n4c(-c5ccccc5)nc5ccccc54)cc3)nc3ccccc32)cc1")
0.0644
>>> endpointresult("COc1cc2nc(N3CCCN(C)CC3)nc(NC3CCN(Cc4ccccc4)CC3)c2cc1OC")
0.0546
>>> endpointresult("Oc1nc(-c2ccc(C(F)(F)F)cc2)nc2c1CSCC2")
0.683
>>> endpointresult("Cc1cc(C)nc(NS(=O)(=O)c2ccc(NC(=S)NC(=O)COc3ccc(Br)cc3Cl)cc2)n1")
0.803
>>> endpointresult("CCCCCOc1ccc(-c2ccc(-c3ccc(C(=O)N[C@H]4C[C@@H](O)[C@@H](O)NC(=O)[C@@H]5[C@@H](O)[C@@H](C)CN5C(=O)[C@H]([C@@H](C)O)NC(=O)[C@H]([C@H](O)[C@@H](O)c5ccc(O)cc5)NC(=O)[C@@H]5C[C@@H](O)CN5C(=O)[C@H]([C@@H](C)O)NC4=O)cc3)cc2)cc1")
0.857
>>> endpointresult("CCn1c(-c2nonc2N)nc2c(C#CC(C)(C)O)ncc(OC[C@H]3CCCNC3)c21")
0.698
>>> endpointresult("CC1(C)CC(=O)c2c(C(F)(F)F)nn(-c3ccc(C(N)=O)c(N[C@H]4CC[C@H](O)CC4)c3)c2C1")
0.574
>>> endpointresult("C1=N/C2=N/c3ccc(OCCN4CCCC4)c(c3)COC/C=C/COCc3cccc(c3)C(=C1)N2 [Pacritinib (SB1518)]")
0.0734
>>> endpointresult("CC1=CC(=O)c2ccccc2C1=O")
0.75
>>> endpointresult("COc1cc2c(NC3CCN(CC4CCCCC4)CC3)nc(N3CCCN(C(C)C)CC3)nc2cc1OCCCN1CCCCC1")
0.0322
>>> endpointresult("Cn1nnc(-c2ccc3c(c2)[nH]c2nc(Cc4ccccc4)nc(NC4CCC(N)CC4)c23)n1 (centres undefined)")
0.765
>>> endpointresult("C[C@H]1COC2=C1C(=O)C(=O)c1c2ccc2c1CCCC2(C)C")
0.0832
>>> endpointresult("Clc1ccc(NN=C(c2ccccc2)c2ccccn2)nc1")
0.0582
>>> endpointresult("O=C(c1ccc(OCCCc2c[nH]cn2)cc1)C1CC1")
0.986
>>> endpointresult("CC1(C)C=C(CN2C/C(=C\\c3ccc(F)cc3)C(=O)/C(=C/c3ccc(F)cc3)C2)C(C)(C)N1O")
0.79
>>> endpointresult("NC(=O)c1cccc2[nH]c(-c3ccc(C4CCCN4)cc3F)nc12 (centres undefined)")
0.788
>>> endpointresult("O=C(Nc1cccc(Cl)c1)c1ccccn1")
1.02
>>> endpointresult("C#CC[C@H](c1nc2cc(Cl)ccc2c(=O)n1Nc1ccccc1)N(CCCN)C(=O)c1cccc(Cl)c1F")
0.0443
>>> endpointresult("CC1(C)CCC2=C(O1)c1ccccc1C(=O)C2=O")
0.0483
>>> endpointresult("CC(C)(C)OC(=O)Nc1ccc(-c2cc(C(=O)NCCCCCCC(=O)NO)no2)cc1")
0.171
>>> endpointresult("COc1cc(-c2ncn(/C=C\\C(=O)OC(C)C)n2)cc(C(F)(F)F)c1")
0.259
>>> endpointresult("Cc1ccc(C(=O)N(CCCN)[C@@H](c2nc3cc(Cl)ccc3c(=O)n2Cc2ccccc2)C(C)C)cc1")
0.309
>>> endpointresult("Cn1c(=O)c(F)c(Nc2ccc(I)cc2F)c2c(=O)n(C[C@@H](O)CO)cnc21")
0.403
>>> endpointresult("COCCOc1nc(-c2ccc(Cl)c(Cl)c2)n(-c2ccc(NC(=O)CCl)cc2)n1")
0.952
>>> endpointresult("COc1cccc2c1C(=O)c1c(O)c3c(c(O)c1C2=O)C[C@@](O)(C(=O)CO)C[C@@H]3O[C@H]1C[C@H](N)[C@H](O)[C@H](C)O1")
0.726
>>> endpointresult("COc1cc2nc(N3CCN(C(=O)C4COc5ccccc5O4)CC3)nc(N)c2cc1OC (centres undefined) [Doxazosin Mesylate]")
1.22
>>> endpointresult("Cc1cccc(-c2[nH]c(C(C)(C)C)nc2-c2ccc3nccnc3c2)n1")
1.26
>>> endpointresult("CN1CCN(C2CCN(C(=O)Nc3cc(Oc4ccc(NC(=O)C5(C(=O)Nc6ccc(F)cc6)CC5)c(F)c4)ccn3)CC2)CC1 [Golvatinib (E7050)]")
0.485
>>> endpointresult("COc1cc2c(Oc3ccc4[nH]c(C)cc4c3F)ncnc2cc1OCCCN1CCCC1")
0.181
